readoutLabel: melting point

compound: O=c1c2c(CCc3ccncc3)n[nH]c2c2cccnc2n1-c1cccc([N+](=O)[O-])c1
melting point: 161 to 165 °C
//
compound: N#CC=CC(=O)C=NN1CC(=O)NC1=O
melting point: 171 to 173 °C
//
compound: CN(C)CCCN(C(=O)Cc1ccccc1)c1ccccc1SCc1ccc(Cl)cc1
melting point: 92 to 94 °C
//
compound: CNc1nc(Cl)ccc1[N+](=O)[O-]
melting point: 114 °C
//
compound: CCOC(=O)c1cn(-c2ccc(F)cc2F)c2nc(O)c(F)cc2c1=O
melting point: 243 to 248 °C

Ask: Supply measured melting point of Cc1cccc([N+](=O)[O-])c1CNc1cccn2c(C)c(C)nc12 in your reply.
Reply: 160 to 162 °C

Ask: Look up and report measured melting point for this entry: NCCCNc1n[nH]c(=O)c2ccccc12
Reply: 147 to 148 °C

Ask: Dear colleague, please send me the reported melting point for COC(=O)c1oc2ccc(OC)cc2c1OCc1ccccc1 when you can.
Reply: 81 to 84 °C

Ask: Quickly give me recorded melting point for O=c1[nH]c2cc(Cl)cc(OCCNCc3cccs3)c2[nH]1
Reply: 179 to 180 °C

====

Measured melting point of individual entries

smilesData: COCc1cnc2c([N+](=O)[O-])cc(C)cc2c1Cl
measuredValue: 107 to 111 °C
--
smilesData: CC(C)(C)OC(=O)N1CCc2snc(O)c2C1
measuredValue: 174 to 177 °C
--
smilesData: O=c1cc(Oc2ccccc2)c(-c2nc[nH]n2)cn1-c1ccccc1
measuredValue: 275 to 276 °C
--
smilesData: CCOC(=O)c1nn(-c2ccccc2)c2c1Cc1ccccc1-2
measuredValue: 110 to 112 °C

Then this molecule:
Ask: Provide melting point value for the following molecule: CCCCCCCCCC(=O)Nc1ccc(S(=O)(=O)Nc2nnc(CC(=O)OCC)s2)cc1
Reply: 89 to 90 °C

====

readoutLabel: melting point

Solved entries:
compound: CN(C)C=Nc1cc(Cc2c(Cl)cccc2Cl)nc(Nc2ccc(C#N)cc2)n1
melting point: 175 to 180 °C
//
compound: O=S(=O)(NCCN1CCOCC1)c1ccc(-c2n[nH]c3c2Cc2ccccc2-3)cc1
melting point: 218 to 220 °C
//
compound: Cc1c(C)c(N)c2c(c1C)C(=O)C(C)(C)O2
melting point: 141 to 142 °C
//
compound: Cc1cccnc1C(CO)COc1ccc(CC2SC(=N)NC2=O)cc1 (stereo not given)
melting point: 213 to 214 °C
//
compound: O=S(=O)(c1ccccc1)c1ccc2c(c1)OCCN2C1CCNC1 (stereo not given)
melting point: 123 to 128 °C

Ask: Check the records and state melting point for CC(C)(C)n1c(=O)c2c(-c3nc(C4CC4)no3)ncn2c2ccccc21
Reply: 182 to 184 °C

Ask: Provide only the value of recorded melting point for CCS(=O)(=O)c1ccc(Oc2ccc(Cl)c(Cl)c2)nc1
Reply: 117 to 118 °C

Ask: Note melting point for the compound shown: CCOc1ccc(C(=NO)c2ccc(OC)c(Cl)c2Cl)c(F)c1
Reply: 188 to 189 °C

Ask: Using the record for CN1CCc2nc3cc(Cl)ccc3c(Nc3ccccc3)c2C1 , state its measured melting point.
Reply: 197 to 198 °C

Ask: For the compound CCOC(=O)CCNc1ncccc1NC(=O)c1ccc(Cl)cc1 , give its reported melting point.
Reply: 124 to 125 °C

Ask: Give melting point for O=C(CCCCC(=O)Oc1cccc(O)c1O)Oc1cccc(O)c1O
Reply: 110 to 111 °C

Ask: Write down melting point measured for item CCOC(=O)C1=C(N)N=C(OCC)C(C(=O)OCC)C1c1cccc(Cl)c1 (stereo not given)
Reply: 121 °C

Ask: State, in one line, measured melting point of CCOc1cc(-c2nnc3c4ccccc4c(OCc4nc[nH]n4)nn23)no1
Reply: 240 to 243 °C

Ask: Determine its reported melting point: COc1ccc2c(c1)C1=C(SCC3(CCN(C(=O)c4cccc(Cl)c4)CC3)O1)C(=O)C2=O
Reply: 125 to 127 °C
